assay_method_text: folding enthalpy; higher = less favourable; fluorescence melt of hairpins on a sequencing array, two-state fit
experimental_conditions: sodium 0.088 M
Heads up, the class ranges for folding enthalpy are low interval (below -30 kcal/mol), middle interval (-30 kcal/mol to below -20 kcal/mol), high interval (-20 kcal/mol or more)

Inquiry: Tag the class for GGCTGCGAAAGCACGGCC ((((((....)))..)))
Reply text: middle interval

Inquiry: // same read-out, input: GAGAGAGGAAACTCCCTC (((.(((....))).)))
Reply text: middle interval

Inquiry: // same read-out, input: GTTTGCGAAAGCATTAAC ((((((....)))..)))
Reply text: high interval

***
Inquiry: Tag the class for GTTTGCGAAAGCAATAAC ((((((....)))..)))
Reply text: high interval

Inquiry: // same read-out, input: GGTGAAGGAAACTTCGCC ((.((((....)))).))
Reply text: low interval

---

assay_method_text: folding enthalpy; higher = less favourable; fluorescence melt of hairpins on a sequencing array, two-state fit
experimental_conditions: sodium 0.088 M
Assign Satisfied whenever folding enthalpy does not fall below -20 kcal/mol; assign Not satisfied whenever it does.

Study these solved cases before continuing.
Inquiry: State whether the measured folding enthalpy reaches -20 kcal/mol, counting equality as reaching it, for GATACAGAAATGTATC ((((((....))))))
Reply text: Not satisfied

Inquiry: // same read-out, input: GTGGGCGAAAGCCGCCAC ((((((....)))..)))
Reply text: Satisfied

Inquiry: // same read-out, input: GTACCCGGAAACGGGCAC ((.((((....)))).))
Reply text: Satisfied

Inquiry: // same read-out, input: GTAAATGGAAACATTTGC (.(((((....))))).)
Reply text: Not satisfied

Inquiry: // same read-out, input: ATTGGGAAACCAAT (((((....)))))
Reply text: Satisfied

***
Inquiry: State whether the measured folding enthalpy reaches -20 kcal/mol, counting equality as reaching it, for GCTAACGAAAGTTAGC ((((((....))))))
Reply text: Not satisfied

Inquiry: // same read-out, input: GGTTGGGGAAACCCAACC (((((((....)))))))
Reply text: Not satisfied

---

assay_method_text: melting temperature; fluorescence melt of hairpins on a sequencing array, two-state fit, raised by 9.35 °C to match UV melts
experimental_conditions: sodium 0.088 M
readout_type: Tm (°C)
Give a bare numeral; the unit °C is implied.

Inquiry: Fill in the blank: the reported Tm of GTACCAGGAAACTGGCAC ((.((((....)))).)) is ____.
Reply text: 42.1

Inquiry: // same read-out, input: GACGAAGGAAACTTTGTC (((.(((....))).)))
Reply text: 41.6

Inquiry: // same read-out, input: GCAGTCTCGAAAGAGTGC (((..(((....))))))
Reply text: 45.8

Inquiry: // same read-out, input: GTCCACGGAAACGTAGAC (((.(((....))).)))
Reply text: 41

***
Inquiry: Fill in the blank: the reported Tm of GATCTCTTTCGAGATC ((((((....)))))) is ____.
Reply text: 52.2

Inquiry: // same read-out, input: GATCGTATTAACGATC ((((((....))))))
Reply text: 55.9

---

The following sequences are listed with their measured Tm values.
assay_method_text: melting temperature; fluorescence melt of hairpins on a sequencing array, two-state fit, raised by 9.35 °C to match UV melts
experimental_conditions: sodium 0.088 M
Give a bare numeral; the unit °C is implied.

// below: answered sequences
Inquiry: Fill in the blank: the reported Tm of CCATTGAAAAATGG (((((....))))) is ____.
Reply text: 41.6

Inquiry: // same read-out, input: GATCCGTAACGGATC ((((((...))))))
Reply text: 57.6

Inquiry: // same read-out, input: GAAACCGAAAGGTGTTTC ((((((....)))..)))
Reply text: 35.9

Inquiry: // same read-out, input: GTGGCCGAAAGGCCCAC ((((((....))).)))
Reply text: 57.5

Inquiry: // same read-out, input: GTTACGGGAAACTGTAAC (((((.(....).)))))
Reply text: 45.6

***
Inquiry: Fill in the blank: the reported Tm of GTCGGCGGAAACGTCGAC ((((.((....)).)))) is ____.
Reply text: 62
